Provenance of the data: ChEMBL document CHEMBL3885861

Species: Rattus norvegicus
Assay: Open TG-GATES - Regimen: Single
Assay type: toxicity, organism-based, Sprague-Dawley
Parameters: regimen Single, gender Male, age 6 weeks
Conditions: in vivo, po, 0 mg/kg, 3 h, tissue Plasma, route gavage, dose level Control
ENDPOINT: A/G
Enter a number only.

compound S=C=Nc1cccc2ccccc12 [1-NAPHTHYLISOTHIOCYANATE] , A/G observed: 1.6

compound Cn1cnc([N+](=O)[O-])c1Sc1ncnc2nc[nH]c12 , A/G observed: 1.1

compound COc1ccc(Cl)cc1C(=O)NCCc1ccc(S(=O)(=O)NC(=O)NC2CCCCC2)cc1 [GLYBURIDE] , A/G observed: 1.7

compound C=CCO , A/G observed: 1.4

compound COc1ccc(O)c(C(C)(C)C)c1.COc1ccc(O)cc1C(C)(C)C [BUTYLATED HYDROXYANISOLE] , A/G observed: 0.8
